Each record here notes measured Km.
# Tested on: HvTHT7
# Construct: His-GST-tagged (pCold GST), E. coli BL21, TALON-purified; HvTHT7 plasmid made by site-directed mutagenesis of HvTHT8; differs from HvTHT8 only at residue 166 (His/Arg)
# METHOD_NOTES: LC-MS/MS (MRM) of amide product
# Type: biochemical, Hordeum vulgare
# EXPERIMENTAL_CONTEXT: acyl acceptor; 200 µM cinnamoyl-CoA; 100 mM Tris-HCl pH 8.0, 35 °C; read-out: HvTHT7 / K m
# Description: LC-MS/MS (MRM) of amide product on HvTHT7
ASSAY_ENDPOINT: Km (µM)

| RECORD_SMILES | MEASURED_RESULT |
| --- | --- |
| NCCc1c[nH]c2ccc(O)cc12 | 385 |
| NCc1c[nH]c2ccccc12 | 54.2 |
| NCC(=O)c1c[nH]c2ccccc12 | 53.1 |
| NCCc1c[nH]c2ccccc12 | 59.2 |

###

Each record here notes measured Km.
# System: HvTHT8
# Construct: His-GST-tagged (pCold GST), E. coli BL21, TALON-purified; differs from HvTHT7 only at residue 166 (His/Arg)
# METHOD_NOTES: LC-MS/MS (MRM) of amide product
# Format: biochemical, Hordeum vulgare
# EXPERIMENTAL_CONTEXT: acyl acceptor; 200 µM cinnamoyl-CoA; 100 mM Tris-HCl pH 8.0, 35 °C; read-out: HvTHT8 / K m

| MOLECULE | UNIT_ABBREV | Km |
| --- | --- | --- |
| NCCc1c[nH]c2ccccc12 [Tryptamine] | µM | 60.6 |
| NCCc1c[nH]c2ccc(O)cc12 [Serotonin] | µM | 347 |
| NCC(=O)c1c[nH]c2ccccc12 [8-Oxotryptamine] | µM | 54.9 |
| NCc1c[nH]c2ccccc12 [IMA, (1H-indol-3-yl)methylamine] | µM | 33.9 |

Hello, the source for this data is paper PMC6888128, in case you need it.
